Experiment: Metabolism test of drugs: plasma pharmacokinetics after intravenous and intragastric administration
Format: in vivo
Experimental context: male, rat; SD rats, PO, 10 mg/kg, plasma
Measurement label: AUC(0-t) (ng·h/mL)
Give your result in ng·h/mL as a bare value.

Look over these answered cases.
| Molecule | AUC(0-t) (ng·h/mL) |
| --- | --- |
| CO[C@]1(C(=O)N[C@@H](C)c2ccc(-n3cc(F)cn3)nc2)CC[C@H](c2nc(Nc3cc(C)[nH]n3)cc3cccnc32)CC1 [Compound C4] | 10900 |
| CO[C@]1(C(=O)N[C@@H](C)c2ccc(-n3cc(F)cn3)nc2)CC[C@H](c2nc(Nc3cc(C)[nH]n3)ccc2C#N)CC1 [Compound C2] | 2300 |
| COC1(C(=O)N[C@@H](C)c2ccc(-n3cc(F)cn3)nc2)CC=C(c2nc(Nc3cc(C)[nH]n3)cc3cccnc23)CC1 (stereo partly shown) [Compound C8] | 2800 |

Task item: Field request: AUC(0-t) | item: CO[C@]1(C(=O)N[C@@H](C)c2ccc(-n3cc(F)cn3)nc2)CC[C@H](c2nc(C)cc(Nc3cc(C)[nH]n3)n2)CC1 [BLU-667, reference compound]
Reply: 4080
